Value source: patent US8536332B2

measuredAttribute: melting point (°C)

>>> numericresult("CCNC(=O)Nc1ccc2ncc(Nc3cccc(N(C)C)c3)nc2n1 [Compound 374]")
215
>>> numericresult("CCOC(=O)CCNC(=S)Nc1ccc2ncc(Nc3cc(OC)c(OC)c(OC)c3)nc2n1 [Compound 709]")
244
>>> numericresult("CCNC(=S)Nc1ccc2ncc(Nc3ccc(O)c([N+](=O)[O-])c3)nc2n1 [Compound 491]")
250
>>> numericresult("CCNC(=S)Nc1ccc2ncc(Nc3cc(Cl)c(Cl)c(Cl)c3)nc2n1 [Compound 465]")
277
>>> numericresult("CCNC(=O)Nc1ccc2ncc(-c3ccc(-c4ccccc4)cc3)nc2n1 [Compound 123]")
280
>>> numericresult("CCNC(=S)Nc1ccc2ncc(Nc3cc(OC)c(OC)c(OC)c3)nc2n1 [Compound 160]")
268
>>> numericresult("CCNC(=O)Nc1cnc2ccc(Nc3ccc(O)cc3)nc2n1 [Compound 24]")
277
>>> numericresult("CCNC(=S)Nc1ccc2ncc(-c3cccc(OC(C)C)c3)nc2n1 [Compound 127]")
227
>>> numericresult("CCNC(=S)Nc1cnc2ccc(Nc3cc(OC)c(OC)c(OC)c3)nc2n1 [Compound 200]")
238
>>> numericresult("CCNC(=O)Nc1ccc2ncc(Nc3cccc(C(C)=O)c3)nc2n1 [Compound 170]")
243
>>> numericresult("CCNC(=S)Nc1ccc2ncc(-c3ccc(C)cc3)nc2n1 [Compound 124]")
246
>>> numericresult("CCNC(=S)Nc1ccc2ncc(Nc3ccccc3OC)nc2n1 [Compound 332]")
232
>>> numericresult("CCNC(=S)Nc1ccc2ncc(Nc3ccc4ccccc4c3)nc2n1 [Compound 168]")
289
>>> numericresult("CCNC(=O)Nc1cnc2ccc(Nc3cc(Cl)c(O)c(Cl)c3)nc2n1 [Compound 15]")
272

====

Recorded melting point by entry

Some compounds with recorded melting point:
>>> result("COc1ccc(-c2ccc3ncc(NC(=O)Nc4ccc(F)cc4)nc3n2)cc1OC [Compound 572]")
"269 to 271 °C"
>>> result("CNC(=O)Nc1cnc2ccc(-c3cc(Cl)c(O)c(Cl)c3)nc2n1 [Compound 557]")
"247 to 249 °C"

[Q] Given CCNC(=O)Nc1ccc2ncc(-c3cccc(OCC)c3F)nc2n1 [Compound 146] , respond with its melting point.
[A] 202 to 204 °C

[Q] # return recorded melting point for input COc1cc(-c2ccc3ncc(NC(=O)Nc4ccccc4[N+](=O)[O-])nc3n2)ccc1O [Compound 617]
[A] 220 to 222 °C

====

# maps each entry to its melting point

>>> result("CCNC(=O)Nc1ccc2ncc(Nc3cccc(O)c3)nc2n1 [Compound 56]")
"270 to 273 °C"
>>> result("CCNC(=O)Nc1ccc2ncc(-c3ccccc3C(F)(F)F)nc2n1 [Compound 97]")
"240 to 243 °C"
>>> result("O=C(Nc1cnc2ccc(-c3cc(Cl)c(O)c(Cl)c3)nc2n1)NC1CCCCCCC1 [Compound 556]")
"261 to 263 °C"
>>> result("CCNC(=O)Nc1ccc2ncc(-c3ccc(-c4ccccc4)cc3F)nc2n1 [Compound 84]")
"263.9 to 265.6 °C"
>>> result("COc1cc(Nc2cnc3ccc(NC(=S)Nc4c(C)noc4C)nc3n2)cc(OC)c1OC [Compound 695]")
"247 °C"

[Q] Give the measured melting point for COc1ccc(-c2ccc3ncc(NC(=O)NC(C)(C)C)nc3n2)cc1OC [Compound 568]
[A] 230 to 233 °C

[Q] Determine from records and report melting point for CCNC(=O)Nc1ccc2ncc(-c3ccccc3F)nc2n1 [Compound 103]
[A] 226 to 228 °C

[Q] Input COc1cc(-c2ccc3ncc(NC(=O)NC4CCCCCCCCCCC4)nc3n2)ccc1O [Compound 628] , output reported melting point.
[A] 233 to 235 °C

[Q] State its melting point: CCNC(=S)Nc1ccc2ncc(-c3cc(OC)c(OC)c(OC)c3)nc2n1 [Compound 134]
[A] 230 °C

====

Reported melting point values for the following molecules.

Here are 10 molecules together with their reported answers.
>>> result("CCNC(=O)Nc1ccc2ncc(-c3cccnc3OC(C)C)nc2n1")
"231 to 232 °C"
>>> result("CCNC(=O)Nc1ccc2ncc(Nc3cccc(OC)c3)nc2n1")
"216 to 219 °C"
>>> result("COc1ccc(-c2ccc3ncc(NC(=O)Nc4ccc(N5C(=O)C=CC5=O)cc4)nc3n2)cc1OC")
"279 to 283 °C"
>>> result("COc1cc(Nc2cnc3ccc(NC(=S)NCCc4ccccc4)nc3n2)cc(OC)c1OC")
"197 to 200 °C"
>>> result("COc1cc(Nc2cnc3ccc(NC(=S)NCc4ccc(C)cc4)nc3n2)cc(OC)c1OC")
"248 to 250 °C"
>>> result("CCNC(=S)Nc1cnc2ccc(Nc3ccc(O)cc3)nc2n1")
"258 °C"
>>> result("CCNC(=O)Nc1ccc2ncc(-c3cccs3)nc2n1")
"227 to 228 °C"
>>> result("CCNC(=O)Nc1ccc2ncc(-c3cccc(F)c3)nc2n1")
"283 to 286 °C"
>>> result("CCNC(=O)Nc1ccc2ncc(-c3cccc(Cl)c3F)nc2n1")
"275 °C"
>>> result("COc1cc(-c2ccc3ncc(NC(=O)NCCCl)nc3n2)ccc1O")
"215 to 218 °C"

[Q] Give melting point for COc1cc(-c2ccc3ncc(NC(=O)Nc4cccs4)nc3n2)ccc1O
[A] 216 to 219 °C

====

measuredAttribute: melting point

Below: 6 compounds and their reported melting point.
>>> result("CCNC(=O)Nc1ccc2ncc(-c3cnc(N)nc3)nc2n1 [Compound 72]")
"> 300 °C"
>>> result("CCNC(=O)Nc1cnc2ccc(N3CCN(C)CC3)nc2n1 [Compound 227]")
"214 to 216 °C"
>>> result("CCNC(=O)Nc1cnc2ccc(Nc3ccc(O)c(Cl)c3)nc2n1 [Compound 31]")
"277 to 280 °C"
>>> result("CCNC(=O)Nc1ccc2ncc(-c3cc(Cl)cc(C)c3F)nc2n1 [Compound 96]")
"258 to 259 °C"
>>> result("CCNC(=O)Nc1ccc2ncc(-c3ccc(OC(C)=O)c(OC)c3)nc2n1 [Compound 54]")
"227 to 229 °C"
>>> result("CCNC(=O)Nc1ccc2ncc(-c3ccc(NC(C)=O)c(OC)c3)nc2n1 [Compound 77]")
"> 300 °C"

[Q] Give the reported melting point for this compound. CCNC(=O)Nc1ccc2ncc(Nc3ccc(O)c(C)c3)nc2n1 [Compound 86]
[A] 277 to 280 °C

[Q] Give the measured melting point for COc1cc(-c2ccc3ncc(NC(=S)NC4CCCC4)nc3n2)ccc1O [Compound 519]
[A] 233 to 235 °C

[Q] Determine from records and report melting point for COc1cc(-c2ccc3ncc(NC(=O)NC4CCN(C(=O)OCc5ccccc5)CC4)nc3n2)ccc1O [Compound 606]
[A] 210 to 212 °C

[Q] Note melting point for the compound shown: COc1cc(Nc2cnc3ccc(NC(=S)NC(C)(C)C)nc3n2)cc(OC)c1OC [Compound 694]
[A] 218 to 220 °C

[Q] Identify measured melting point corresponding to CCNC(=O)Nc1ccc2ncc(-c3cccc(Cl)c3)nc2n1 [Compound 111]
[A] 262 to 264 °C

[Q] Fill in reported melting point for this entry: CCNC(=O)Nc1ccc2ncc(-c3cnn(Cc4ccccc4)c3)nc2n1 [Compound 58]
[A] 258 to 261 °C

[Q] Item CCNC(=O)Nc1ccc2ncc(-c3ccc(N(c4ccccc4)c4ccccc4)cc3)nc2n1 [Compound 128] : provide melting point
[A] 269 to 273 °C

[Q] Could you please provide reported melting point for CCNC(=O)Nc1ccc2ncc(-c3cccc(OC(F)(F)F)c3)nc2n1 [Compound 118] ? Thanks!
[A] 239 to 240 °C

[Q] Please indicate melting point recorded for C=CCNC(=O)Nc1cnc2ccc(-c3cc(C)c(O)c(C)c3)nc2n1 [Compound 587]
[A] 210 to 212 °C

[Q] Quick one: give measured melting point for CCNC(=S)Nc1ccc2ncc(Nc3cccc(Cl)c3)nc2n1 [Compound 329]
[A] > 220 °C

[Q] Entry CCNC(=O)Nc1ccc2ncc(-c3ccccc3C)nc2n1 [Compound 105] needs its melting point filled in; supply it.
[A] 218 to 220 °C

[Q] Determine from records and report melting point for COc1cc(-c2ccc3ncc(NC(=O)NCc4ccccc4)nc3n2)ccc1O [Compound 29]
[A] 229 to 231 °C

====

measuredAttribute: melting point

Below, each entry is followed by its recorded melting point result.
>>> result("COc1cc(-c2ccc3ncc(NC(=O)Nc4ccc(N5C(=O)C=CC5=O)cc4)nc3n2)ccc1O [Compound 622]")
"290 to 293 °C"
>>> result("COc1cc(-c2ccc3ncc(NC(=O)N[C@@H]4C[C@H]4c4ccccc4)nc3n2)ccc1O [Compound 603]")
"233 to 236 °C"
>>> result("CCNC(=O)Nc1cnc2ccc(-c3cccc(OC(C)C)c3)nc2n1 [Compound 177]")
"234 to 237 °C"

[Q] Return value of melting point for input O=C(Nc1ccc(N2C(=O)C=CC2=O)cc1)Nc1cnc2ccc(-c3cc(Cl)c(O)c(Cl)c3)nc2n1 [Compound 565] , no commentary.
[A] > 300 °C
